Listed below: remaining at 1 h, 1 μM values for each entry.
# Test method notes: human liver microsomal stability assay
# Assay type: in vitro ADME
# Setup conditions: human, microsomes, pH 7.4, human liver microsomes, 60 min, 37 °C, read-out: HLM % Remaining at 1h
Give just the number in %; leave the unit off.

| Compound | remaining at 1 h, 1 μM, % |
| --- | --- |
| COc1cc(-c2cncc(-c3ccc(N4C[C@@H](C)N(C)[C@@H](C)C4)cc3)c2C)cc(F)c1C(N)=O [Compound 26c] | 47.5 |
| COc1cc(-c2cncc(-c3ccc(N4C[C@@H](C)N(C)[C@@H](C)C4)cc3)c2C)cc(OC)c1C(N)=O [Compound 26f] | 55.7 |
| COc1cc(-c2cncc(-c3ccc(N4CCNCC4)cc3)c2C)cc(F)c1C(N)=O [Compound 8b] | 105 |

*Q* Note down remaining at 1 h, 1 μM recorded for COc1cc(-c2cncc(-c3ccc(N4CCN(C)CC4)cc3)c2C)cc(F)c1C(N)=O [Compound 26a]
*A* 78

###

Listed below: pIC50 values for each entry.
# Target desc: CYP3A4 (Homo sapiens)
# Sequence (P08684 whole entry): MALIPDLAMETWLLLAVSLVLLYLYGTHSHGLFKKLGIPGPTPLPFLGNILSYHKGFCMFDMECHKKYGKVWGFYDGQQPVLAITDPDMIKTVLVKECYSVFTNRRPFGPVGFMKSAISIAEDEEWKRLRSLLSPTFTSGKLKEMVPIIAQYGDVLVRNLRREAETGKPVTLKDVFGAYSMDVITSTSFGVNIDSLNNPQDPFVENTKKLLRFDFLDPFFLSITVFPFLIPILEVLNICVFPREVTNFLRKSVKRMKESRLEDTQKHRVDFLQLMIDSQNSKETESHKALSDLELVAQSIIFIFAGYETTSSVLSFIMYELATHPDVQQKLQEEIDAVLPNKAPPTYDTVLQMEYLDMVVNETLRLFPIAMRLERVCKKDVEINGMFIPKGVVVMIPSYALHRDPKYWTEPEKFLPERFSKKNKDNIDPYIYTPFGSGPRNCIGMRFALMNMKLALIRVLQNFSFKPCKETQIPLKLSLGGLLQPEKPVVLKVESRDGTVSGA
# Setup conditions: read-out: CYP3A4-Testosterone IC50; human liver microsomes, substrate testosterone
pIC50: −log10 of the molar value.

| Molecule | Result |
| --- | --- |
| COc1cc(-c2cncc(-c3ccc(N4CCN(C)CC4)cc3)c2C)cc(F)c1C(N)=O [Compound 26a] | < 4.30 |

For the next question, use this molecule.
*Q* Note down pIC50 recorded for COc1cc(-c2cncc(-c3ccc(N4C[C@@H](C)N(C)[C@@H](C)C4)cc3)c2C)cc(F)c1C(N)=O [Compound 26c]
*A* < 4.30

###

Listed below: half-life at 24 h values for each entry.
# Test method notes: in vivo
# Setup conditions: female, CB17 SCID, mouse, po, 10 mg/kg
Give just the number in h; leave the unit off.

| Molecule | Measure unit | Numeric readout |
| --- | --- | --- |
| COc1cc(-c2cncc(-c3ccc(N4CCN(C)CC4)cc3)c2C)cc(F)c1C(N)=O [Compound 26a] | h | 2.56 |

For the next question, use this molecule.
*Q* Note down half-life at 24 h recorded for COc1cc(-c2cncc(-c3ccc(N4CCNCC4)cc3)c2C)cc(F)c1C(N)=O [Compound 8b]
*A* 1.31

###

# Target desc: CYP1A2 (Homo sapiens, UniProt P05177)
# Construct: tissue Corning 452117; host or cells: pooled human liver microsomes (UltraPool HLM 150, mixed gender)
# Sequence (P05177 whole entry): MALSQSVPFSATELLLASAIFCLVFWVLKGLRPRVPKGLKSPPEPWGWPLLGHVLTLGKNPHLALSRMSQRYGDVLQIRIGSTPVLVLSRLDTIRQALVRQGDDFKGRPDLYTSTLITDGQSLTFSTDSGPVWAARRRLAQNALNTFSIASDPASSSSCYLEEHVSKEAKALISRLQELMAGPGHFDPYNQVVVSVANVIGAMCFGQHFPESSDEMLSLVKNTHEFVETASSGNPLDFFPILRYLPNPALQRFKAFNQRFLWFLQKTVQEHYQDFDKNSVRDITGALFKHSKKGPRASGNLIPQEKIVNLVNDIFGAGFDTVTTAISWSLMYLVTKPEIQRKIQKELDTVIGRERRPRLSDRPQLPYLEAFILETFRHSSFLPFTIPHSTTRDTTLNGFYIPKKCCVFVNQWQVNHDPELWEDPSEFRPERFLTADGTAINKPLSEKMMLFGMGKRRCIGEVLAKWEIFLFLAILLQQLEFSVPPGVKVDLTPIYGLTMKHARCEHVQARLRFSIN
# Test method notes: CYP inhibition assay
# Format: in vitro ADME
# Setup conditions: human liver microsomes
Listed below: IC50 values for each entry.

*Q* Note down IC50 recorded for COc1cc(-c2cncc(-c3ccc(N4C[C@@H](C)N(C)[C@@H](C)C4)cc3)c2C)cc(F)c1C(N)=O [Compound 26c]
*A* > 50 µM

*Q* Note down IC50 recorded for COc1cc(-c2cncc(-c3ccc(N4CCN(C)CC4)cc3)c2C)cc(F)c1C(N)=O [Compound 26a]
*A* > 50 µM

###

# Target desc: CYP3A4 (Homo sapiens)
# Setup conditions: read-out: CYP3A4-Midazolam IC50; human liver microsomes, substrate midazolam
Listed below: IC50 values for each entry.

| Compound | IC50 |
| --- | --- |
| COc1cc(-c2cncc(-c3ccc(N4C[C@@H](C)N(C)[C@@H](C)C4)cc3)c2C)cc(F)c1C(N)=O [Compound 26c] | > 50 µM |

For the next question, use this compound.
*Q* Note down IC50 recorded for COc1cc(-c2cncc(-c3ccc(N4CCN(C)CC4)cc3)c2C)cc(F)c1C(N)=O [Compound 26a]
*A* > 50 µM
